System: E. coli DH5α cells
experiment-summary: Penetration efficiency of TAMRA-labeled CPPs, electroporation-based method, flow cytometry
Type: cell-based, Escherichia coli
assay-context: electrocompetent E. coli DH5α, 5 μg TAMRA-CPP, electroporation 1.8 kV, distilled water, 1 h, replicate 1
Text: (Fig. 2a). […] First, we prepared electrocompetent and chemically competent cells.
Where no end group is shown, it is not given here.
So I've got a bunch of substances here, and I need their Cell penetration efficiency (TAMRA fluorescence), Electrooration - DW values.
One number for each entry, in A.U..

# per-item lookup of Cell penetration efficiency (TAMRA fluorescence), Electrooration - DW; items listed below
1. Penetratin (RQIKIWFPNRRMKWKK; also: TAMRA label, site not given here) [CPP 17, TAMRA-labeled CPP of the 98-CPP library, one of five used to evaluate delivery methods]
2. Rev(34-50) (TRQARRNRRRRWRERQR; also: TAMRA label, site not given here) [CPP 15, TAMRA-labeled CPP of the 98-CPP library, one of five used to evaluate delivery methods]
3. ppTG1 (GLFKALLKLLKSLWKLLLKA; also: TAMRA label, position not given here) [CPP 16, TAMRA-labeled CPP of the 98-CPP library, one of five used to evaluate delivery methods]
4. R9-TAT (GRRRRRRRRRPPQ; also: TAMRA label, site not given here) [CPP 14, TAMRA-labeled CPP of the 98-CPP library, one of five used to evaluate delivery methods]

Result:
634.038
772.285
116.793
871.282

FYI, the data here is from paper PMC7884711.
